Hi there, I'd appreciate the recorded IC50 for every entry that follows.
target: mouse TRPM3a2 (mTRPM3) ion channel (Mus musculus, UniProt J9SQF3); construct: expressed in transfected cells; host or cells: flip-in HEK293; assay: TRPM3 ion channel driven Ca2+ uptake, Fluo-4 AM assay (PS-stimulated, overexpressing flip-in HEK293 cells); type: cell-based; conditions: PS (50 μM) stimulated, cpds. 500-599
Sequence (J9SQF3 1-1709 isoform J9SQF3-12): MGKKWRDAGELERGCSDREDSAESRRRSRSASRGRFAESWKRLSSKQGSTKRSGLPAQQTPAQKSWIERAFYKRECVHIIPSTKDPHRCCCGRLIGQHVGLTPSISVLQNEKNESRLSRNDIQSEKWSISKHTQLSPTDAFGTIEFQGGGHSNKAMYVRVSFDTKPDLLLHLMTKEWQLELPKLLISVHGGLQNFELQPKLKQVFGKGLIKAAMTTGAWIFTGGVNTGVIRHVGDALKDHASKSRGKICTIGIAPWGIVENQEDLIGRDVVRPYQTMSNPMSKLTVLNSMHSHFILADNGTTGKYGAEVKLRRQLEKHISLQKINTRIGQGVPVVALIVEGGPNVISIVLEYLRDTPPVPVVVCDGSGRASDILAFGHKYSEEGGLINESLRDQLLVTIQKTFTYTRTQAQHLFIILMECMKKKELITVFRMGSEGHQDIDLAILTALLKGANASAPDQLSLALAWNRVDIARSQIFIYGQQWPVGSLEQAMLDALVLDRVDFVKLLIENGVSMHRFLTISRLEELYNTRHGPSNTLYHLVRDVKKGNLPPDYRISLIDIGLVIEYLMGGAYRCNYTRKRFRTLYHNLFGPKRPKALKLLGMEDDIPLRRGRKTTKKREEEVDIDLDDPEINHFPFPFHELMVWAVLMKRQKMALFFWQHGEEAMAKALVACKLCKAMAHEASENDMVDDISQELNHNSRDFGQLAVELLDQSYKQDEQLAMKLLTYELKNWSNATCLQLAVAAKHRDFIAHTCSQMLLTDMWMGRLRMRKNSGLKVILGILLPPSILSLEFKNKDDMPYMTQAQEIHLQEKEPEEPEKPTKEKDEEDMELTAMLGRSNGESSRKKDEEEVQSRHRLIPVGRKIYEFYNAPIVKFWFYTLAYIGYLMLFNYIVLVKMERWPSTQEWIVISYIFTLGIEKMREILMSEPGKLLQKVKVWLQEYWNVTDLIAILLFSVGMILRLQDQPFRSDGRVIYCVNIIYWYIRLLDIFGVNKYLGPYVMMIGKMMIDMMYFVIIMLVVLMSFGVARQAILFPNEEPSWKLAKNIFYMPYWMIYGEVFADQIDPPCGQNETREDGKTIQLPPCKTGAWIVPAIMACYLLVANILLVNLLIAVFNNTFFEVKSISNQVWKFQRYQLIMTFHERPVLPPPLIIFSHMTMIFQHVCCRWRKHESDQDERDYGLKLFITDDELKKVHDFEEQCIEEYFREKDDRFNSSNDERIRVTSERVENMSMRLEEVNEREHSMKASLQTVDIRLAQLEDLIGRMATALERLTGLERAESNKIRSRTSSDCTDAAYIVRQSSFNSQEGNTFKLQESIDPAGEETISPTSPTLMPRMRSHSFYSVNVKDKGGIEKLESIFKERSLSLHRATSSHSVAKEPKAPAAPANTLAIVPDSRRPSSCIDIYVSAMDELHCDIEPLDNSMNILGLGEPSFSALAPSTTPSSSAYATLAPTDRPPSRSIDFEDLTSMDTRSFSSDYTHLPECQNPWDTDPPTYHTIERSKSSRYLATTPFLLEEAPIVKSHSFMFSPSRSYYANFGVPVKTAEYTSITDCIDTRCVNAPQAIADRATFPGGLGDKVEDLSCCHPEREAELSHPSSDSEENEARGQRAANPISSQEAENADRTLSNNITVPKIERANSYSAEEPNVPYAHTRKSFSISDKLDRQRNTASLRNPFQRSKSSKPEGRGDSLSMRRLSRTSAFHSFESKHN

Query block: Which measured IC50 value corresponds to Cc1oc2ccc(OCc3ccccn3)cc2c1C(=O)NC1(C(N)=O)CCOC1 (single isomer, unassigned) [595 - En 1] ?
Result block: ≤ 1 µM

Query block: Next compound up: Cc1ncccc1COc1ccc2oc(C)c(C(=O)NC3(C(N)=O)CCOC3)c2c1 (single isomer, unassigned) [591 - En 1]
Result block: ≤ 1 µM

Query block: And for Cc1oc2ccc(OCc3cccn(C)c3=O)cc2c1C(=O)NC1CCNCC1(F)F (single isomer, unassigned) [544 - En 1] ?
Result block: 1 to 20 µM

Query block: Try this compound too: Cc1oc2ccc(OCc3cccnc3O)cc2c1C(=O)NC1(CO)CCNC1=O (single isomer, unassigned) [521 - En 2]
Result block: 1 to 20 µM

Query block: Okay, and COc1ncccc1COc1ccc2oc(C)c(C(=O)NC3(CO)CCNC3=O)c2c1 (single isomer, unassigned) [522 - En 1] ?
Result block: ≤ 1 µM

Query block: How about Cc1oc2ccc(OCc3cccnc3O)cc2c1C(=O)NC1(CO)CCNC1=O (single isomer, unassigned) [521 - En 1] ?
Result block: ≤ 1 µM

====

target: mouse TRPM3a2 (mTRPM3) ion channel (Mus musculus); construct: expressed in transfected cells; host or cells: flip-in HEK293; experiment: TRPM3 ion channel driven Ca2+ uptake, Fluo-4 AM assay (PS-stimulated, overexpressing flip-in HEK293 cells); assay type: cell-based; details: PS (50 μM) stimulated Ca2+ influx, HEK293, cpds 300-399
pIC50: −log10 of the molar value.
Kindly state pIC50 for each of the entries shown.

Query block: Return pIC50 measured with mouse TRPM3a2 (mTRPM3) ion channel (Mus musculus) given this molecule: Cc1ncsc1COc1ccc2oc(C)c(C(=O)NC3CCN(CCO)C3=O)c2c1F (single isomer, unassigned) [326 - En 1]
Result block: ≥ 6.00

Query block: Likewise for Cc1oc2ccc(OCc3c(F)cnn3C)cc2c1C(=O)NC1(CO)CCNC1=O (single isomer, unassigned) ?
Result block: ≥ 6.00

Query block: Same thing, different molecule: Cc1oc2ccc(OCc3cccnc3O)cc2c1C(=O)NC1COCC1O (centres unmarked)
Result block: ≥ 6.00

Query block: Then Cc1ncsc1COc1ccc2oc(C(F)F)c(C(=O)NC3(CO)COC3)c2c1 ?
Result block: 4.70 to 6.00

Query block: Proceed to COc1ncccc1COc1cc(F)c2oc(C)c(C(=O)NC3(CO)CCOCC3)c2c1
Result block: 4.70 to 6.00
